Measured inhibition in vivo at 100 mg/kg of individual entries
- Test system: water immersion restriction stress ulcer
- test.method.notes: Water immersion restriction stress ulcer, oral administration
- Type: in vivo, Crj:Wistar rat (male)
- recorded.conditions: Rattus norvegicus, 6 h; gastric damage index vs control; 100 mg/kg oral, water immersion stress; read-out: Inhibition rate

Here's what some known entries look like.
- CN(C(Cc1ccc(OS(=O)(=O)c2cccc3cnccc23)cc1)C(=O)N1CCN(c2ccccc2)CC1)S(=O)(=O)c1cccc2cnccc12 (stereo not shown) [(13)]: 66%
- CN(C(Cc1ccc(O)cc1)CN1CCCN(C(=O)OCc2ccccc2)CC1)S(=O)(=O)c1cccc2cnccc12 (stereo not shown) [(14)]: 73%
- O=S(=O)(NC(Cc1ccc(O)cc1)CN1CCCN(c2ccccc2)CC1)c1cccc2cnccc12 (stereo not shown) [(6)]: 22%

Data request: Using the record for O=S(=O)(NC(Cc1ccc(O)cc1)CN1CCN(c2ccccc2)CC1)c1cccc2cnccc12 (stereo not shown) [(1)] , state its measured inhibition in vivo at 100 mg/kg.
Data returned: 33%

Data request: Using the record for CN(C(Cc1ccc(O)cc1)CN1CCN(C(=O)OCc2ccccc2)CC1)S(=O)(=O)c1cccc2cnccc12 (stereo not shown) [(4)] , state its measured inhibition in vivo at 100 mg/kg.
Data returned: 46%

Data request: Using the record for O=S(=O)(NC(Cc1ccc(O)cc1)CN1CCC(OCc2ccc(Cl)c(Cl)c2)CC1)c1cccc2cnccc12 (stereo not shown) [(7)] , state its measured inhibition in vivo at 100 mg/kg.
Data returned: 66%

Data request: Using the record for O=S(=O)(NC(Cc1ccc(OS(=O)(=O)c2cccc3cnccc23)cc1)CN1CCN(c2ccc(F)cc2)CC1)c1cccc2cnccc12 (stereo not shown) [(3)] , state its measured inhibition in vivo at 100 mg/kg.
Data returned: 29%

----------
- Test system: water immersion restriction stress ulcer
- test.method.notes: Water immersion restriction stress ulcer, oral administration
- Assay type: in vivo, Crj:Wistar rat (male)
- recorded.conditions: Rattus norvegicus, 6 h; gastric damage index vs control; 100 mg/kg oral, water immersion stress; read-out: Inhibition rate
Measured inhibition in vivo at 100 mg/kg of individual entries
The figure you give is taken to be in %; do not add the unit.

Here's what some known entries look like.
- COc1ccc(CC(CN2CCCN(C(=O)OCc3ccccc3)CC2)N(CCN(C)C)S(=O)(=O)c2cccc3cnccc23)cc1 (stereo not shown) [(16)]: 70
- CN(C(Cc1ccc(O)cc1)CN1CCC(c2ccccc2)CC1)S(=O)(=O)c1cccc2cnccc12 (stereo not shown) [(11)]: 57
- COc1ccc(CC(CN2CCC(OCc3ccc(Cl)c(Cl)c3)CC2)N(C)S(=O)(=O)c2cccc3cnccc23)cc1 (stereo not shown) [(9)]: 38

Okay, now this compound:
Data request: Fill: inhibition in vivo at 100 mg/kg (water immersion restriction stress ulcer) for this compound CN(C(Cc1ccc(O)cc1)CN1CCN(c2cccc(Cl)c2)CC1)S(=O)(=O)c1cccc2cnccc12 (stereo not shown) [(2)]
Data returned: 38

----------
Measured Gastric damage index of individual entries
- Test system: aspirin ulcer
- test.method.notes: Anti-aspirin ulcer test, oral administration
- Type: in vivo, Crj:Wistar rat (male)
- recorded.conditions: 100 mg/kg oral, 30 min before aspirin 200 mg/kg oral, 6 h; control 76.0
The figure you give is taken to be in mm; do not add the unit.

Here's what some known entries look like.
* CN(C(Cc1ccc(O)cc1)CN1CCC(OCc2ccc(Cl)c(Cl)c2)CC1)S(=O)(=O)c1cccc2cnccc12 (stereo not shown) | 28.9
* O=C(C(Cc1ccc(OS(=O)(=O)c2cccc3cnccc23)cc1)NS(=O)(=O)c1cccc2cnccc12)N1CCN(c2ccccc2)CC1 (stereo not shown) | 43.5
* CN(C(Cc1ccc(OS(=O)(=O)c2cccc3cnccc23)cc1)C(=O)N1CCN(c2ccccc2)CC1)S(=O)(=O)c1cccc2cnccc12 (stereo not shown) | 30.3

Okay, now this compound:
Data request: Using the record for COc1ccc(CC(CN2CCN(C(=O)OCc3ccccc3)CC2)N(C)S(=O)(=O)c2cccc3cnccc23)cc1 (stereo not shown) , state its measured Gastric damage index.
Data returned: 36.5
